Experiment: Toxicity liver stage against HepG2, at 10uM
Format: cell-based
Design: test concentration 10 uM, cell line HepG2-A16-CD81EGFP
Conditions: human, HepG2-A16-CD81EGFP cells; read-out: INHIBITION
REPORTED_PROPERTY: cytotoxicity at 10 µM (%)
The response must be a number in % with no trailing unit.

COCc1noc(-c2ccc(N(C)Cc3c(C)n[nH]c3C)nc2)n1: 0.897

For record `CC(=O)Nc1sccc1C(=O)C(C)(C)C` the listed cytotoxicity at 10 µM is -44.7

For record `COc1ccc(CN2C[C@@H]3COC[C@H](N4CCN(C)CC4)[C@@H]3C2)cc1` the listed cytotoxicity at 10 µM is -85.6

----------
Recorded cytotoxicity at 10 µM by entry
Experiment: Toxicity liver stage against HepG2, at 10uM
Format: cell-based
Set-up: test concentration 10 uM, cell line HepG2-A16-CD81EGFP
Conditions: human, HepG2-A16-CD81EGFP cells; read-out: INHIBITION
Remember to put the unit after the number in your answer.

Take a look at these entries with their results.
CC(C)[C@H]1CN(Cc2nccn2C)C[C@@H]1NC(=O)COCC(N)=O: -0.0298%
Cc1cccc(COC[C@H]2CC[C@H]3[C@H](CCN3Cc3ccco3)O2)n1: -172%
COCCN1C(=O)[C@@H]2CC[C@H]1CN(S(=O)(=O)c1cccc(Cl)c1)C2: 20.5%
COc1ncccc1NC(=O)N1CCC(c2ccc(O)cc2)CC1: 4.87%

For record `CC(C)(O)CN1CCN(C(=O)c2cccc3cccnc23)CC1` the listed cytotoxicity at 10 µM is -10.7%

For record Cc1nc(C)n(CC2CCCN2Cc2cc(C)on2)n1 (configuration not stated) the listed cytotoxicity at 10 µM is 4.04%

For record `CCN(CCC(F)(F)F)C(=O)Nc1cccc(N2CCOCC2)c1` the listed cytotoxicity at 10 µM is -8.02%

For record `COCCO[C@H]1CCN(Cc2ccoc2)[C@H]1Cc1cccnc1` the listed cytotoxicity at 10 µM is -3.85%

For record C1CC(N2Cc3nnn(CC4CC4)c3C(COCC3CC3)C2)C1 (configuration not stated) the listed cytotoxicity at 10 µM is 5.57%

----------
Assay: Toxicity liver stage against HepG2, at 10uM
Format: cell-based
Design: test concentration 10 uM, cell line HepG2-A16-CD81EGFP
Conditions: human, HepG2-A16-CD81EGFP cells; read-out: INHIBITION
REPORTED_PROPERTY: cytotoxicity at 10 µM (%)
The response must be a number in % with no trailing unit.

Take a look at these entries with their results.
CC(C)COc1ccccc1C(N)CC(C)C (stereo not given): -5.27
CN1CC(c2ccccc2)CC2(CCN(C(=O)c3ccccc3)CC2)C1 (stereo not given): -0.0342

For record O=C1NC(C(=O)NCc2cccnc2Oc2ccc(F)c(F)c2)CO1 (stereo not given) the listed cytotoxicity at 10 µM is -0.115

For record O=C(c1cscn1)N1CC[C@@H]2[C@@H]1CCN2CC1CCOC1 (stereo not given in full) the listed cytotoxicity at 10 µM is -2.36

For record `CCCNC(=O)c1ccc2c(c1)C(=O)N(CC(C)C)C2=O` the listed cytotoxicity at 10 µM is -10.2

For record COCCN1CCCc2sc(C(=O)NCC3CCCO3)nc21 (stereo not given) the listed cytotoxicity at 10 µM is 5.96

For record Cc1cc(N2CCN(Cc3ccccc3)CC(O)C2)nc(N)n1 (stereo not given) the listed cytotoxicity at 10 µM is 1.06

For record Cc1ccc2c(c1)SCC(=O)N2CC(=O)N1CCCC1c1nccs1 (stereo not given) the listed cytotoxicity at 10 µM is 12.4

----------
Experiment: Toxicity liver stage against HepG2, at 10uM
Format: cell-based
Set-up: test concentration 10 uM, cell line HepG2-A16-CD81EGFP
Settings: human, HepG2-A16-CD81EGFP cells; read-out: INHIBITION
REPORTED_PROPERTY: cytotoxicity at 10 µM (%)
The response must be a number in % with no trailing unit.

Cn1c(N)nnc1SC1CCCN(c2ccccc2F)C1=O (centres undefined): -7.29
COc1ccc(S(N)(=O)=O)cc1C(=O)N(C)Cc1cc(C)on1: -4.3
COCc1nc(CNc2cccc(-c3nc(C)c(C)o3)c2)cs1: 5.11
Cc1nnnn1-c1cc(NCc2cccc(C#N)c2)ccc1F: 7.09
Cc1ccsc1CNC(=O)N1CCC(Cc2cnn(C)c2)C1 (centres undefined): -6.6

Then there is this compound:
For record CCNC(=O)NC(=O)CN(CC(C)O)c1ccccc1 (centres undefined) the listed cytotoxicity at 10 µM is 1.32

----------
Assay: Toxicity liver stage against HepG2, at 10uM
Format: cell-based
Parameters: test concentration 10 uM, cell line HepG2-A16-CD81EGFP
Details: human, HepG2-A16-CD81EGFP cells; read-out: INHIBITION
REPORTED_PROPERTY: cytotoxicity at 10 µM (%)
The response must be a number in % with no trailing unit.

CN1C(=O)[C@@H]2CC[C@H]1CN(Cc1cccc(OCc3ccccn3)c1)C2: 5.52
Cc1cc(N2CCC(O)(CN(C)C(=O)CCN)C2)c2cnccc2n1 (stereo not drawn): -2.06
Cn1ccc(CN2CCC(CO)CC2)cc1=O: 5.1
COc1c(CNC(C)C(=O)NC2CCCC2)c(C)nn1C (stereo not drawn): -8.45

For record Cc1nc(C)c(CN2CCOC(Cc3ccccc3Cl)C2)nc1C (stereo not drawn) the listed cytotoxicity at 10 µM is 5.32

For record `Cc1cnc(-c2nc(C3CCN(Cc4ccccc4C)CC3)no2)cn1` the listed cytotoxicity at 10 µM is 4.08

For record `CN(CCN1CCCCC1)C(=O)c1cc(CN2CCOCC2)on1` the listed cytotoxicity at 10 µM is -22.7

----------
Test: Toxicity liver stage against HepG2, at 10uM
Format: cell-based
Set-up: test concentration 10 uM, cell line HepG2-A16-CD81EGFP
Conditions: human, HepG2-A16-CD81EGFP cells; read-out: INHIBITION
REPORTED_PROPERTY: cytotoxicity at 10 µM (%)
The response must be a number in % with no trailing unit.

For record CC(C)(C)c1cc(NC(=O)CN2CCCC2Cn2cncn2)on1 (stereo not drawn) the listed cytotoxicity at 10 µM is 5.91

For record `COc1c(C)cnc(CN(C)C(=O)c2ccccn2)c1C` the listed cytotoxicity at 10 µM is 0.22

For record `CN(Cc1cc(Br)cn1C)C(=O)Cc1cccc(O)c1` the listed cytotoxicity at 10 µM is -4.99

----------
Recorded cytotoxicity at 10 µM by entry
Assay: Toxicity liver stage against HepG2, at 10uM
Format: cell-based
Design: test concentration 10 uM, cell line HepG2-A16-CD81EGFP
Settings: human, HepG2-A16-CD81EGFP cells; read-out: INHIBITION
Remember to put the unit after the number in your answer.

Take a look at these entries with their results.
Cc1nc2n(n1)CC(NCc1csc(-c3ccsc3)n1)CC2 (centres undefined): -0.544%
CCC[C@H]1CN(Cc2cscn2)C[C@@H]1NC(=O)C1(COC)CCC1: -5.69%
O=C(NC[C@]1(O)CN(Cc2ccccc2F)C[C@H]1O)c1ccccn1: 1.15%
Cn1cc(CN2CCC3(CC2)CN(C(=O)c2cnccn2)CCO3)cn1: -5.49%
O=C(CCNC(=O)C1=Cc2ccccc2OC1)NCc1ccncc1: 5.6%

For record CC(c1ccc(F)cc1F)N1CCN(Cc2nccn2C)CC1 (centres undefined) the listed cytotoxicity at 10 µM is -11.7%

For record Cc1cc(C)n(CC2CCCCN2CC(=O)N(C)Cc2ccco2)n1 (centres undefined) the listed cytotoxicity at 10 µM is -9.75%

For record `CCN(CC)[C@@H]1CN(Cc2ccc(C)o2)[C@@H]2CCCO[C@H]12` the listed cytotoxicity at 10 µM is -148%

----------
Assay: Toxicity liver stage against HepG2, at 10uM
Type: cell-based
Design: test concentration 10 uM, cell line HepG2-A16-CD81EGFP
Settings: human, HepG2-A16-CD81EGFP cells; read-out: INHIBITION
REPORTED_PROPERTY: cytotoxicity at 10 µM (%)
The response must be a number in % with no trailing unit.

N#Cc1ccc(CN2C[C@@H](F)[C@@H](OCc3nc4cnccc4[nH]3)C2)cc1: -3.67
CCn1nc(C)c(CNC(=O)c2nnc3ccccc3n2)c1C: 5.81
N#Cc1cnc2ccccc2c1N1CCNCC1: -1.86

For record NC(=O)c1cccc(CC2CCN(C(=O)CCc3cccc(F)c3)C2)c1 (centres undefined) the listed cytotoxicity at 10 µM is -3.75

----------
Assay: Toxicity liver stage against HepG2, at 10uM
Assay type: cell-based
Parameters: test concentration 10 uM, cell line HepG2-A16-CD81EGFP
Conditions: human, HepG2-A16-CD81EGFP cells; read-out: INHIBITION
REPORTED_PROPERTY: cytotoxicity at 10 µM (%)
The response must be a number in % with no trailing unit.

Take a look at these entries with their results.
CC(C)c1n[nH]c(C(=O)NC(C)c2ccncc2)c1Br (centres undefined): -5.85
Cc1ncc(CN2C[C@H]3CC(OCc4ccccc4)C[C@H]3C2)cn1 (some centres undefined): -24.3

For record O=C(C1=CCCC1)N1CCC2(CC1)CC(Oc1cccnc1)CO2 (centres undefined) the listed cytotoxicity at 10 µM is -1.58

For record CC(C)c1nn(C)c(N(C)C)c1CNC1CCCCNC1=O (centres undefined) the listed cytotoxicity at 10 µM is 2.91

For record `CCCn1nc2c(cc1=O)CN(CCN1CCCC1=O)CC2` the listed cytotoxicity at 10 µM is -11.6

For record `Cc1nc(CN2CCN(c3cc(CCN)ncn3)CC2)cs1` the listed cytotoxicity at 10 µM is -145
